Where do the numbers come from? From patent EP2649983A1.

# systemTested: SNARE complex in cells of a human neuroblastoma cell line (human, UniProt P60880 1-206)
# Sequence (P60880 whole entry, one chain of several): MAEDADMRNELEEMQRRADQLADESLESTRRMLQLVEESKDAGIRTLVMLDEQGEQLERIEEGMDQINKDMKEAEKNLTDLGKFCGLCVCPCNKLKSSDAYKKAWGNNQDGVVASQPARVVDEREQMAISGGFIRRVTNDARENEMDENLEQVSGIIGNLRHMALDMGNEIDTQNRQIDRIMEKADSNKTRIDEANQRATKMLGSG
# assayName: cell-based or functional assay
Provide the reported % RELEASED NO… (Average), dose 1000 µM of each item.
Answers are plain numbers, in %.

Below are worked cases with known answers.
binder | observedResult
Ac-DHFLDWM-NH2 [Ac-SEQ ID NO:25-NH2] | 41
Ac-DHFQQRM-NH2 [Ac-SEQ ID NO:24-NH2] | 67.9
Ac-EDLKRWM-NH2 [Ac-SEQ ID NO:14-NH2] | 45.8

We now examine a further binder.
Quick note, % RELEASED NO… (Average), dose 1000 µM for Ac-EHLKQWM-NH2 [Ac-SEQ ID NO:1-NH2] landed at 42.5
